The reported measurements were obtained from patent US20250161338A1.

Test system: prototrophic yeast strain (CEN.PK113-7D)
test.summary: Propidium iodide fluorescence-based CLS method in yeast (incl. high-throughput screening);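 further: untreated reference is eight DMSO and water control wells per plate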
Format: cell-based, Saccharomyces cerevisiae
condition.details: concentration tested 100 μM; solvent DMSO or water; chronological age point Day 7 (72 h growth = Day 1); lower = more survival
Residues, ends and D or L forms follow the SMILES beside them.
Entries and their PI intensity

{"molecule": "N[C@H](C(=O)O)[C@@H]1CC(Cl)=NO1", "PI intensity": "41,066.2"}
{"molecule": "O=C(O)c1ccc2c(c1)C(=O)c1ccccc1C2=O", "PI intensity": "96,099.2"}
{"molecule": "N#CCCN", "PI intensity": "65,865.6"}
{"molecule": "Cc1cc(=O)oc2cc(O)ccc12", "PI intensity": "90,234.6"}
{"molecule": "N[C@@H](Cc1ccc(O)c(Cl)c1)C(=O)O", "PI intensity": "67,122.0"}
{"molecule": "C[C@](N)(Cc1ccc(O)cc1)C(=O)O [Metyrosine, reference compound]", "PI intensity": "76,947.2"}
{"molecule": "O=C[C@H](O)[C@@H](O)[C@H](O)[C@H](O)C(=O)O", "PI intensity": "48,839.6"}
{"molecule": "CC[C@@]1(O)C(=O)OCc2c1cc1n(c2=O)Cc2cc3c([N+](=O)[O-])cccc3nc2-1", "PI intensity": "57,075.3"}
{"molecule": "CC1=C(/C=C/C(C)=C/C=C/C(C)=C/C(=O)O)C(C)(C)CCC1 [Retinoic acid, reference compound]", "PI intensity": "85,242.6"}
{"molecule": "C[S+](C)CCC(N)C(=O)O.[Cl-] (racemic) [DL-Methionine methylsulfonium (chloride)]", "PI intensity": "66,281.7"}
{"molecule": "O=C(O)C(O)Cc1ccccc1 (racemic)", "PI intensity": "65,266.9"}
{"molecule": "C[Se]CC[C@H](N)C(=O)O [L-SelenoMethionine]", "PI intensity": "31,240.0"}
{"molecule": "O=C(O)CCCCCCCCCCCC(=O)O", "PI intensity": "80,407.7"}
{"molecule": "CC(C)=CCC[C@@H](C)CCO [(R)-Citronellol]", "PI intensity": "75,290.6"}
{"molecule": "C[C@]12CCC(=O)C=C1C=C[C@@H]1[C@@H]2CC[C@@]2(C)[C@H]1CC[C@@]21CCC(=O)O1 [Canrenone, reference compound]", "PI intensity": "64,295.2"}
{"molecule": "CC(C)N1CCN(c2ccc(OCC3COC(Cn4cncn4)(c4ccc(Cl)cc4Cl)O3)cc2)CC1 (stereo not shown) [Terconazole, reference compound]", "PI intensity": "72,350.0"}
{"molecule": "COc1c(O)cc(O)c2c(=O)cc(-c3ccccc3)oc12", "PI intensity": "76,348.2"}
{"molecule": "CC[C@H](C)[C@@H]1NC(=O)[C@@H]2CCCN2C(=O)[C@@H]2CCCN2C(=O)[C@@H]2CCCN2C(=O)[C@H](CC(C)C)NC(=O)CNC(=O)CNC(=O)[C@H](Cc2ccccc2)NC1=O [Heterophyllin B] (cyclo(FGGLPPPI))", "PI intensity": "61,587.8"}
{"molecule": "O=C(O)c1ccco1", "PI intensity": "72,748.2"}
{"molecule": "CSCCNc1nc(SCCC(F)(F)F)nc2c1ncn2[C@@H]1O[C@H](COP(=O)([O-])OP(=O)([O-])C(Cl)(Cl)P(=O)([O-])[O-])[C@@H](O)[C@H]1O.[Na+].[Na+].[Na+].[Na+] [Cangrelor (tetrasodium), reference compound]", "PI intensity": "83,173.6"}
{"molecule": "O=C(O)/C=C/CCCCCCCO", "PI intensity": "65,406.1"}
{"molecule": "CC(C)=CCC/C(C)=C/CO", "PI intensity": "76,340.1"}
{"molecule": "C[C@H](CCC(=O)NCC(=O)O)[C@H]1CC[C@H]2[C@@H]3[C@@H](O)C[C@@H]4C[C@H](O)CC[C@]4(C)[C@H]3CC[C@]12C", "PI intensity": "64,205.2"}
{"molecule": "CC1OC(OC2C(=O)c3c(O)cc(O)cc3OC2c2ccc(O)cc2)C(O)C(O)C1O (stereo not shown)", "PI intensity": "37,144.4"}
{"molecule": "C/C=C1\\C(=O)C[C@H]2[C@@H]3CCC4=CC(=O)CC[C@]4(C)[C@H]3CC[C@]12C", "PI intensity": "63,881.9"}
{"molecule": "O=c1c(O[C@@H]2O[C@H](CO)[C@@H](O)[C@H](O)[C@H]2O[C@@H]2O[C@H](CO)[C@@H](O)[C@H](O)[C@H]2O)c(-c2ccc(O)c(O)c2)oc2cc(O)cc(O)c12 [Baimaside]", "PI intensity": "61,895.7"}
{"molecule": "CC(=O)N[C@@H](Cc1ccc(O)cc1)C(=O)O", "PI intensity": "57,322.5"}
{"molecule": "CN(C)c1nc2c(ncn2[C@@H]2O[C@H](CO)[C@@H](O)[C@H]2O)c(=O)[nH]1", "PI intensity": "65,619.9"}
{"molecule": "O=C[C@H](O)[C@H](O)[C@H](O)CO (single isomer, unassigned) [D-Ribose(mixture of isomers)]", "PI intensity": "60,023.1"}
{"molecule": "O=C1N[C@@H]2C(=C[C@H](O)[C@@H](O)[C@H]2O)c2cc3c(c(O)c21)OCO3", "PI intensity": "67,161.8"}
{"molecule": "O=C(O)[C@@H](O)Cc1ccccc1 [(S)-2-Hydroxy-3-phenylpropanoic acid]", "PI intensity": "72,969.5"}
